- experimentalTarget: Anti-CD28 Fab (SEQ ID NOs: 202, 203)
- Sequence (VH, as listed by the source, chain 1 of 2): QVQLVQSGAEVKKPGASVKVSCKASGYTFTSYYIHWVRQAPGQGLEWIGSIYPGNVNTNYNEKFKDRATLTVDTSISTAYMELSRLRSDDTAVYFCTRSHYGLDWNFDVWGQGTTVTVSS
- Sequence (VL, as listed by the source, chain 2 of 2): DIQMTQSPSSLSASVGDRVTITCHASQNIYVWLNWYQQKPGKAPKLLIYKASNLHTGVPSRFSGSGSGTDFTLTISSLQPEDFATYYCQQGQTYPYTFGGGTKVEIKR
- experimentSummary: phage binding ELISA on captured Fab;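 note: clonal phage supernatants added briefly to wells pre-incubated with CD28 antigen or with blocking buffer only, then washed, bound phage read by ELISA using HRP-coupled anti-M13 antibody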
Decide using Anti-CD28 Fab signal: a value greater than or equal to 2 is MET, a smaller one is NOT MET.

Evaluate YCDGHLPQYMAKCL [Phage-76] : Anti-CD28 Fab signal at minimum 2?
MET

Evaluate YCEGHLPEYMWKCL [Phage-62] : Anti-CD28 Fab signal at minimum 2?
MET

Evaluate YCDGHIEEYRAKCL [Phage-145] : Anti-CD28 Fab signal at minimum 2?
MET

Evaluate YCDGHLPMYMQKCL [Phage-83] : Anti-CD28 Fab signal at minimum 2?
MET

Evaluate YCAGHSPEHMWKCL [Phage-98] : Anti-CD28 Fab signal at minimum 2?
MET

Evaluate YCDGHLPEYREKCF [Phage-86] : Anti-CD28 Fab signal at minimum 2?
MET

Evaluate YCEGHLPEYIQKCL [Phage-42] : Anti-CD28 Fab signal at minimum 2?
NOT MET

Evaluate YCAGHAPEYMEKCL [Phage-48] : Anti-CD28 Fab signal at minimum 2?
MET

Evaluate YCDGHLPQYMAQCL [Phage-59] : Anti-CD28 Fab signal at minimum 2?
MET

Evaluate FMCLPQNPHPLCFK [Phage-3] : Anti-CD28 Fab signal at minimum 2?
NOT MET

Evaluate DCPWLSGFSRPLLC [Phage-19] : Anti-CD28 Fab signal at minimum 2?
NOT MET

Evaluate YCMGHSHEHIWKCL [Phage-23] : Anti-CD28 Fab signal at minimum 2?
NOT MET

Evaluate YCEGHAPEYMLKCL [Phage-146] : Anti-CD28 Fab signal at minimum 2?
MET

Evaluate YCDGHSQEYMAKCL [Phage-131] : Anti-CD28 Fab signal at minimum 2?
MET

Evaluate GCQYPWAFDAMSCP [Phage-6] : Anti-CD28 Fab signal at minimum 2?
MET

Evaluate YCDGHLPEYMNKCL [Phage-52] : Anti-CD28 Fab signal at minimum 2?
MET
